Kindly supply the reported CDK7/cyclinH/MAT1(h) % activity values for the records listed here.
- system: CDK7/cyclinH/MAT1(h) (Homo sapiens)
- Sequence (P50613 whole entry): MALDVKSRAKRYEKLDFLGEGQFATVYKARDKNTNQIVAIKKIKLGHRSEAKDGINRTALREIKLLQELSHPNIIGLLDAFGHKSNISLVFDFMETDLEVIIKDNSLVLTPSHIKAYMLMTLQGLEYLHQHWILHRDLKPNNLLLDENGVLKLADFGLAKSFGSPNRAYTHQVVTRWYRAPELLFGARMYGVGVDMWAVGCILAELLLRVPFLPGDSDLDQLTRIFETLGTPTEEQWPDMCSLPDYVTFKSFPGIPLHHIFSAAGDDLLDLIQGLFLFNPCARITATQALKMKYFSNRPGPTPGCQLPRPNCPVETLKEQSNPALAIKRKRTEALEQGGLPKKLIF
- Sequence (P51946 whole entry partner): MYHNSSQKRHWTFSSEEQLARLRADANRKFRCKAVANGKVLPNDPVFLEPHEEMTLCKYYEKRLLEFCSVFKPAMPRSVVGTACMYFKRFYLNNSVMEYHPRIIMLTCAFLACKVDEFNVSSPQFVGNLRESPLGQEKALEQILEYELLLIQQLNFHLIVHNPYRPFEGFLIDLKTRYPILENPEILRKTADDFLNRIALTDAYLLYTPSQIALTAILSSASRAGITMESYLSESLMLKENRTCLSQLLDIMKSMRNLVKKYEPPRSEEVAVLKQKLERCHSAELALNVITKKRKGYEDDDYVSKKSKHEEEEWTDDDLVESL
- Sequence (P51948 whole entry partner): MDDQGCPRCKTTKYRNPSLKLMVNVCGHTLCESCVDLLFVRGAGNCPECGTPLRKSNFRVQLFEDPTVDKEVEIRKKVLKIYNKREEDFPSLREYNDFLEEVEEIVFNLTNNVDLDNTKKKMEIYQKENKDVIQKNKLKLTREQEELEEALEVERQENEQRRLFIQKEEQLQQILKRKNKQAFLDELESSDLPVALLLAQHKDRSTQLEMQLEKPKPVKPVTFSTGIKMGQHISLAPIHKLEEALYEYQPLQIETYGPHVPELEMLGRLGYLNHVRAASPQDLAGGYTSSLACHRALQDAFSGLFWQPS
- assay: Kinase Profiling Assay
- Assay type: biochemical
- condition info: 100 μM peptide
Field format: number, assumed %, no unit text.

Read the entry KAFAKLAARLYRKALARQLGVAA [MMI-0400] and write its reported CDK7/cyclinH/MAT1(h) % activity.
47

Read the entry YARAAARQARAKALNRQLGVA (Mammalian) [MMI-0200] and write its reported CDK7/cyclinH/MAT1(h) % activity.
67

Read the entry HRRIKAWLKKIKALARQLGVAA (Mammalian) [MMI-0500] and write its reported CDK7/cyclinH/MAT1(h) % activity.
15

Read the entry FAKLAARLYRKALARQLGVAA [MMI-0300] and write its reported CDK7/cyclinH/MAT1(h) % activity.
65

###

- system: SAPK2b(h) (Homo sapiens, UniProt Q15759)
- Sequence (Q15759 whole entry): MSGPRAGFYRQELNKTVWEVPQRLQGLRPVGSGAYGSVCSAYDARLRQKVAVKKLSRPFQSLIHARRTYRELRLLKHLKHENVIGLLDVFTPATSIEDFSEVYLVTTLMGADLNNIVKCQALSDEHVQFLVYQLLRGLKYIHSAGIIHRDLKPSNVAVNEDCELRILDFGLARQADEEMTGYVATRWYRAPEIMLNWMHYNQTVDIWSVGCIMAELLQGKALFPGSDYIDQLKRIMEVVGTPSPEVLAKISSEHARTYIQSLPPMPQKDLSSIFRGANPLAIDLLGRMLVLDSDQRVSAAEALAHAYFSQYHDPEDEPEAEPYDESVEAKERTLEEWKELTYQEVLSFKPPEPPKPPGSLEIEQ
- assay: Kinase Profiling Assay
- Format: biochemical
- condition info: 100 μM peptide
Kindly supply the reported SAPK2b(h) % activity values for the records listed here.
Field format: number, assumed %, no unit text.

Find the measured SAPK2b(h) % activity of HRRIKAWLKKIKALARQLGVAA (Mammalian) [MMI-0500] with SAPK2b(h) (Homo sapiens, UniProt Q15759) as test system.
42

Find the measured SAPK2b(h) % activity of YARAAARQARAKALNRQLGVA (Mammalian) [MMI-0200] with SAPK2b(h) (Homo sapiens, UniProt Q15759) as test system.
95

Find the measured SAPK2b(h) % activity of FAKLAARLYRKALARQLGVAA [MMI-0300] with SAPK2b(h) (Homo sapiens, UniProt Q15759) as test system.
81

Find the measured SAPK2b(h) % activity of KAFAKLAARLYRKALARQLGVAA [MMI-0400] with SAPK2b(h) (Homo sapiens, UniProt Q15759) as test system.
82

###

Kindly supply the reported EphA5(h) % activity values for the records listed here.
- system: EphA5(h) (Homo sapiens)
- Sequence (P54756 25-1037): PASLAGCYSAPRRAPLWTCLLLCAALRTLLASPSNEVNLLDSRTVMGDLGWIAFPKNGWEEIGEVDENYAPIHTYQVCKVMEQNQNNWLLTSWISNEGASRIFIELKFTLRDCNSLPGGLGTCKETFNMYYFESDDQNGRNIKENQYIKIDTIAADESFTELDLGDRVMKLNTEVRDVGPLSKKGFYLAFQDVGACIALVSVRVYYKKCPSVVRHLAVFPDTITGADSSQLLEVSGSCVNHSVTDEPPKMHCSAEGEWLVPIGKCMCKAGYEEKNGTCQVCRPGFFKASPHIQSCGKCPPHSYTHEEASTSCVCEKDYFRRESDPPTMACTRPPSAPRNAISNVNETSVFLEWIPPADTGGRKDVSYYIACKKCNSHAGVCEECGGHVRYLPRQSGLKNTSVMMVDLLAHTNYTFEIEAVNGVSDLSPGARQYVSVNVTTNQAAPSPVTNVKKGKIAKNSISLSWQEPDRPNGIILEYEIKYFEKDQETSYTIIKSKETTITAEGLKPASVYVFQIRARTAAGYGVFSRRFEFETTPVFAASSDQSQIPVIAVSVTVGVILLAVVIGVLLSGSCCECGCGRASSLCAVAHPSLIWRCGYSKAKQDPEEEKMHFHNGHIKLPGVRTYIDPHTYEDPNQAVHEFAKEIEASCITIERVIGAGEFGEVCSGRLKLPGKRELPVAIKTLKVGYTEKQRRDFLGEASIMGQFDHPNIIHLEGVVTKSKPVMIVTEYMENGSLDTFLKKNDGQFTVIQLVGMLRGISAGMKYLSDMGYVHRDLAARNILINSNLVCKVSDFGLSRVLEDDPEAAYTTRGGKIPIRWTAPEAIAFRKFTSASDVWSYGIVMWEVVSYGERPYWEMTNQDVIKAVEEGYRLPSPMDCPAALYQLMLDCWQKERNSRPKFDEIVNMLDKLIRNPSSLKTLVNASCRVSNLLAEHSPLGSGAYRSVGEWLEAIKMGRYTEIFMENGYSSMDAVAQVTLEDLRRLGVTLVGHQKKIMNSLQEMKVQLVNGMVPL
- assay: Kinase Profiling Assay
- Assay type: biochemical
- condition info: 100 μM peptide
Field format: number, assumed %, no unit text.

Read the entry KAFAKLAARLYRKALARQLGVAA [MMI-0400] and write its reported EphA5(h) % activity.
24

Read the entry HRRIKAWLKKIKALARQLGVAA (Mammalian) [MMI-0500] and write its reported EphA5(h) % activity.
42

Read the entry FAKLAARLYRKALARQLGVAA [MMI-0300] and write its reported EphA5(h) % activity.
18

Read the entry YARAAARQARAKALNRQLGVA (Mammalian) [MMI-0200] and write its reported EphA5(h) % activity.
123

###

- system: MSSK1(h) (Homo sapiens, UniProt Q9UPE1)
- Sequence (Q9UPE1 whole entry): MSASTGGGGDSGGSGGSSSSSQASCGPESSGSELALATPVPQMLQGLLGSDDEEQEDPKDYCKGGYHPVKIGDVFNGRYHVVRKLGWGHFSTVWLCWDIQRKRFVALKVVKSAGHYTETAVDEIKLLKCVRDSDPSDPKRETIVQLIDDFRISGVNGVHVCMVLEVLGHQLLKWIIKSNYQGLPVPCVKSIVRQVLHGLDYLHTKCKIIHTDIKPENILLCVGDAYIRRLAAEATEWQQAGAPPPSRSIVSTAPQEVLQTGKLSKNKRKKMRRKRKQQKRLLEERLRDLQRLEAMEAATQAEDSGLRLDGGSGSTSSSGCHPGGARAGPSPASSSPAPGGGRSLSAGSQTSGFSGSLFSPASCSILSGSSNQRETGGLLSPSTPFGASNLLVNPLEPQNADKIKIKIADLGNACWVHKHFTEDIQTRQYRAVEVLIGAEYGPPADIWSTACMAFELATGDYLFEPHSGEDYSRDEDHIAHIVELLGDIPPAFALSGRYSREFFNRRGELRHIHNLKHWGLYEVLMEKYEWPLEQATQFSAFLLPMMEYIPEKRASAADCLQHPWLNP
- assay: Kinase Profiling Assay
- Assay type: biochemical
- condition info: 100 μM peptide
Kindly supply the reported MSSK1(h) % activity values for the records listed here.
Field format: number, assumed %, no unit text.

Read the entry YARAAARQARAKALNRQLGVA (Mammalian) [MMI-0200] and write its reported MSSK1(h) % activity.
100

Read the entry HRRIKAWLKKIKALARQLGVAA (Mammalian) [MMI-0500] and write its reported MSSK1(h) % activity.
22

Read the entry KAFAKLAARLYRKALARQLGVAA [MMI-0400] and write its reported MSSK1(h) % activity.
75

Read the entry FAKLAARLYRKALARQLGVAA [MMI-0300] and write its reported MSSK1(h) % activity.
77
